# assay_name: Solubility of compound having Formula V in various media
# Type: physicochemical
# condition_description: aqueous with cosolvent or surfactant or cyclodextrin; Medium: 10% PEG-400/1% polysorbate 80 (a composition of the present invention)
reported_property: solubility
The answer should read as a number with its unit following.

[in] Please give the measured solubility for this compound: Cc1ccc2c(NCC(O)(CC(C)(C)c3cc(F)cc4c3OCC4)C(F)(F)F)cccc2n1 (stereo not shown)
[out] 12 µg/mL

###

# assay_name: Solubility of compound having Formula V in various media
# Type: physicochemical
# condition_description: aqueous with cosolvent or surfactant or cyclodextrin; Medium: 1% Polysorbate 80
reported_property: solubility (µg/mL)
Provide the reading as a plain figure in µg/mL.

[in] Please give the measured solubility for this compound: Cc1ccc2c(NCC(O)(CC(C)(C)c3cc(F)cc4c3OCC4)C(F)(F)F)cccc2n1 (stereo not shown)
[out] 12

The measurements presented in this section are drawn from patent US20090239836A1.
